# Test system: Crude diglycosidase
# protocol summary: Examination of pH in the conversion into isoflavone aglycons by diglycosidase using soybean materials
# Format: biochemical, Penicillium multicolor IAM7153
# Parameters: concentration or dose not given beside the values
# run conditions: pH7.8; heat treatment of enzyme: yes; reaction time 6 h
outcome measure: Decomposition efficiency of genistin family in defatted soybean (%)
Give the value, in units of %, as a plain number.

O=c1c(-c2ccc(O)cc2)coc2cc(O[C@@H]3O[C@H](CO)[C@@H](O)[C@H](O)[C@H]3O)cc(O)c12 :: 37.5

# get_value(readout='Decomposition efficiency of genistin family in defatted soybean', item= O=c1c(-c2ccc(O)cc2)coc2cc(O)cc(O)c12 )
22.0

Give the measured Decomposition efficiency of genistin family in defatted soybean of O=C(O)CC(=O)OC[C@H]1O[C@@H](Oc2cc(O)c3c(=O)c(-c4ccc(O)cc4)coc3c2)[C@H](O)[C@@H](O)[C@@H]1O .
39.9

Reported Decomposition efficiency of genistin family in defatted soybean for CC(=O)OC[C@H]1O[C@@H](Oc2cc(O)c3c(=O)c(-c4ccc(O)cc4)coc3c2)[C@H](O)[C@@H](O)[C@@H]1O : what is it?
0.6

* * *

# Test system: Crude diglycosidase
# protocol summary: Examination of substrate concentration in the conversion into isoflavone aglycons by diglycosidase using soybean materials
# Format: biochemical, Penicillium multicolor IAM7153
# run conditions: substrate concentration 5%, heat treatment of enzyme no, reaction time 6 h
outcome measure: Decomposition efficiency of genistin family in defatted soybean
Respond numerically, and do not add a unit to the figure.

Consider the worked cases shown below.
CC(=O)OC[C@H]1O[C@@H](Oc2cc(O)c3c(=O)c(-c4ccc(O)cc4)coc3c2)[C@H](O)[C@@H](O)[C@@H]1O :: 0.3
O=C(O)CC(=O)OC[C@H]1O[C@@H](Oc2cc(O)c3c(=O)c(-c4ccc(O)cc4)coc3c2)[C@H](O)[C@@H](O)[C@@H]1O :: 19.0

Read the next record carefully.
Look at this compound and give its reported Decomposition efficiency of genistin family in defatted soybean. O=c1c(-c2ccc(O)cc2)coc2cc(O)cc(O)c12
80.7

* * *

# Test system: Crude diglycosidase
# protocol summary: Examination of substrate concentration in the conversion into isoflavone aglycons by diglycosidase using soybean materials;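 as to Decomposition efficiency: ratio of each glycoside/aglycon within its isoflavone family: percent of the isoflavone family total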
# Format: biochemical, Penicillium multicolor IAM7153
# run conditions: soymilk, substrate concentration 10%, heat treatment of enzyme no, reaction time 1 h
# Decomposition efficiency: ratio of each glycoside/aglycon within its isoflavone family per record follows
Kindly answer with a numeric value in %, unit omitted.

Use these answered entries as a reference point.
COc1cc2c(=O)c(-c3ccc(O)cc3)coc2cc1O :: 73.6
COc1cc2c(=O)c(-c3ccc(O)cc3)coc2cc1O[C@@H]1O[C@H](COC(=O)CC(=O)O)[C@@H](O)[C@H](O)[C@H]1O :: 26.4

Can you share its Decomposition efficiency: ratio of each glycoside/aglycon within its isoflavone family? I mean this compound: O=C(O)CC(=O)OC[C@H]1O[C@@H](Oc2cc(O)c3c(=O)c(-c4ccc(O)cc4)coc3c2)[C@H](O)[C@@H](O)[C@@H]1O
31.5

* * *

# Tested on: Crude diglycosidase
# protocol summary: Examination of substrate concentration in the conversion into isoflavone aglycons by diglycosidase using soybean materials;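 as to Decomposition efficiency: ratio of each glycoside/aglycon within its isoflavone family: percent of the isoflavone family total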
# Type: biochemical, Penicillium multicolor IAM7153
# run conditions: concentrated soybean protein, substrate concentration 2%, heat treatment of enzyme no, reaction time 1 h
Under this convention, TRUE denotes Decomposition efficiency: ratio of each glycoside/aglycon within its isoflavone family strictly below 10% and FALSE denotes Decomposition efficiency: ratio of each glycoside/aglycon within its isoflavone family at or above 10%.

Some entries whose results are on file:
CC(=O)OC[C@H]1O[C@@H](Oc2ccc3c(=O)c(-c4ccc(O)cc4)coc3c2)[C@H](O)[C@@H](O)[C@@H]1O :: FALSE
COc1cc2c(=O)c(-c3ccc(O)cc3)coc2cc1O :: FALSE
COc1cc2c(=O)c(-c3ccc(O)cc3)coc2cc1O[C@@H]1O[C@H](COC(=O)CC(=O)O)[C@@H](O)[C@H](O)[C@H]1O :: TRUE
O=c1c(-c2ccc(O)cc2)coc2cc(O[C@@H]3O[C@H](CO)[C@@H](O)[C@H](O)[C@H]3O)cc(O)c12 :: TRUE
CC(=O)OC[C@H]1O[C@@H](Oc2cc(O)c3c(=O)c(-c4ccc(O)cc4)coc3c2)[C@H](O)[C@@H](O)[C@@H]1O :: FALSE

Kindly consider the entry below.
Here's an entry: COc1cc2c(=O)c(-c3ccc(O)cc3)coc2cc1O[C@@H]1O[C@H](COC(C)=O)[C@@H](O)[C@H](O)[C@H]1O . Is its Decomposition efficiency: ratio of each glycoside/aglycon within its isoflavone family below 10%?
FALSE
